Target: HDAC6 enzyme (Homo sapiens)
Construct: transducing full length HDAC6 gene into Sf-9 insect cells; GST; purchased SignalChem; host or cells: Sf-9 insect cells
Experiment: HDAC6 enzyme inhibitory activity (HDAC-Glo I/II Assay kit)
Format: biochemical
Details: 10 μM; wells without enzyme = 100% inhibition; read-out: HDAC6 inhibitory rate (%) (10 μM)
Method: HDAC6 enzyme prepared by transducing full length HDAC6 gene into Sf-9 insect cells and purifying by GST affinity column were purchased from SignalChem. Using this enzyme, HDAC6 enzyme inhibitory activities of the compound of the present invention were evaluated. Enzymes were used after preserved at −70° C. HDAC6 enzyme inhibitory activity of the compound of the present invention was measured using HDAC-Glo™ I/II Assay kit (Promega) according to the following experimental method. […]
Entries and their inhibition at 10 µM
Your answer should be a number followed by the unit of measure.

Consider the following illustrative entries.
O=C(N[C@@H]1CCCC[C@H]1N1Cc2ccc(-c3nnc(C(F)F)o3)cc2C1=O)c1ccccc1Cl [Example 99]
100%
O=C1c2cc(-c3nnc(C(F)F)o3)ccc2CN1c1ccccc1-c1ccc(C(F)F)cc1 [Example 292]
97%
O=C1c2cc(-c3nnc(C(F)F)o3)ccc2CN1c1ccccc1-c1ccc(Cl)cc1 [Example 282]
98%

Now let's try a different one.
Request: // inhibition at 10 µM lookup, key: O=C1c2cc(-c3nnc(C(F)F)o3)ccc2CN1c1ccccc1Cc1ccccc1 [Example 487]
Response: 99%

====

HDAC6 inhibitory rate (%) (10 μM) values, listed per item
Molecular target: HDAC6 enzyme (Homo sapiens, UniProt Q9UBN7)
Construct: transducing full length HDAC6 gene into Sf-9 insect cells; GST; purchased SignalChem; host or cells: Sf-9 insect cells
Sequence (Q9UBN7 1-1215): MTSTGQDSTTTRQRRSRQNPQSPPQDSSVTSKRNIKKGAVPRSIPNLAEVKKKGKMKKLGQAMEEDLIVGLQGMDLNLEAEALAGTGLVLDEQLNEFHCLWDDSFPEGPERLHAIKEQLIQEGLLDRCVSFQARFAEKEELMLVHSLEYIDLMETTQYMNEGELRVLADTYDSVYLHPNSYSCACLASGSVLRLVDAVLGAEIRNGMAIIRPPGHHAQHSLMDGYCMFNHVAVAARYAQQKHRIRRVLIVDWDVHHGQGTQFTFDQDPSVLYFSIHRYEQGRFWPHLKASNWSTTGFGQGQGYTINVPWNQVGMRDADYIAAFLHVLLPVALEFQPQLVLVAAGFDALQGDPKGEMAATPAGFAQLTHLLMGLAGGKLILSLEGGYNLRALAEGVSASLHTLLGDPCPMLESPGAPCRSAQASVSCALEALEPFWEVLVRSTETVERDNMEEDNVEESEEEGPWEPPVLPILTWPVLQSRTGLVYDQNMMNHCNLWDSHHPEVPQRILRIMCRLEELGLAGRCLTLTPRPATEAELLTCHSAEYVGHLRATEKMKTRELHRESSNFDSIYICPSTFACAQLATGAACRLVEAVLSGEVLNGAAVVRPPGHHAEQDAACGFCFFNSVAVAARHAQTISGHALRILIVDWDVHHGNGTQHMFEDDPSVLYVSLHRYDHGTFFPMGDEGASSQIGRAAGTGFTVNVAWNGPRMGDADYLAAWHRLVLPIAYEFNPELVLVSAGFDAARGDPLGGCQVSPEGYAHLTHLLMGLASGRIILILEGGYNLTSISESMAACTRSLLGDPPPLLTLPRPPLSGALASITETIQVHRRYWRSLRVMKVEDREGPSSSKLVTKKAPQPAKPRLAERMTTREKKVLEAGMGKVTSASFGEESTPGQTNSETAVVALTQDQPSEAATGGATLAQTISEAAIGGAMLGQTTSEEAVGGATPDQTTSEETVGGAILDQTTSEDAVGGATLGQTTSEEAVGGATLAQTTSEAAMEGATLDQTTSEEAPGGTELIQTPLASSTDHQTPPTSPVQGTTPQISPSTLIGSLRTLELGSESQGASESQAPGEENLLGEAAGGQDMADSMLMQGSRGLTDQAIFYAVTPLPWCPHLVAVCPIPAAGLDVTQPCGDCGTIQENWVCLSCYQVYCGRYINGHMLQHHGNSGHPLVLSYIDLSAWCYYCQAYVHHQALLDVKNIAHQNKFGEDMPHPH
Assay: HDAC6 enzyme inhibitory activity (HDAC-Glo I/II Assay kit)
Type: biochemical
Conditions: 10 μM; wells without enzyme = 100% inhibition
Just the number please, in %, no unit attached.

Answered cases to consult:
O=C1c2cc(-c3nnc(C(F)F)o3)ccc2CN1N1CCC(F)(F)CC1c1cccc(F)c1 (stereo not shown) [Example 562]
99
O=C1c2cc(-c3nnc(C(F)F)o3)cnc2CN1[C@@H]1COCC[C@H]1Oc1cc(F)cc(F)c1
100
O=C1c2cc(-c3nnc(C(F)F)o3)ccc2CN1N1CCC(F)(F)CC1c1cccc(F)c1 (stereo not shown) [Example 565]
100
O=C1c2cc(-c3nnc(C(F)F)o3)ccc2CN1[C@@H]1CCN(C(=O)C2(C(F)(F)F)CC2)C[C@H]1c1ccc(F)cc1
100
O=C1c2cc(-c3nnc(C(F)F)o3)ccc2CN1N1CCC(F)(F)CC1c1ccc(F)cn1 (stereo not shown) [Example 610]
99
O=C1c2cc(-c3nnc(C(F)F)o3)cnc2CN1[C@@H]1COCC[C@H]1Oc1cccc(F)c1
99

Moving on to the next compound.
Request: Please give the measured HDAC6 inhibitory rate (%) (10 μM) for this compound: O=C1c2cc(-c3nnc(C(F)F)o3)ccc2CN1[C@@H]1CCC(F)(F)C[C@@H]1c1ccccn1 (relative stereo)
Response: 99

Value source: patent US10435399B2
